// data source = the supplement of paper PMC10567573

B1: MCOLN1 (parent)
chain: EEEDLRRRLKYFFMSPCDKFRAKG

Variants of: B1
Test: protein stability index of a GFP-peptide fusion (GPS, HEK-293T) (PSI 1-6); higher = more stable;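 also: lentivirally expressed fusions sorted by FACS into six bins by GFP to DsRed ratio, PSI derived from sequencing read proportions per bin multiplied by bin number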
Conditions: c terminus: a fixed tail appended
measurement.label: protein stability index
Enter the number alone.

# example entries with known answers
EESDLRRRLKYFFMSPCDKFRAKG [E3S] = 2.9
EEEDLRRRLKYFFMSPQDKFRAKG [C17Q] = 3.58

Entry under test: EEEDLRRRLHYFFMSPCDKFRAKG [K10H] . Its protein stability index was 2.11

Entry under test: TEEDLRRRLKYFFMSPCDKFRAKG [E1T] . Its protein stability index was 3.34

Entry under test: EEEDLRRRLKYQFMSPCDKFRAKG [F12Q] . Its protein stability index was 3.53

Entry under test: EEEDLRRRLKCFFMSPCDKFRAKG [Y11C] . Its protein stability index was 2.77

Entry under test: EEEDLRRRLKYFIMSPCDKFRAKG [F13I] . Its protein stability index was 3.15

Entry under test: EEEDLRRRLNYFFMSPCDKFRAKG [K10N] . Its protein stability index was 3.21

Entry under test: EEEDLRRRLKYFKMSPCDKFRAKG [F13K] . Its protein stability index was 3.23

Entry under test: EEEDSRRRLKYFFMSPCDKFRAKG [L5S] . Its protein stability index was 2.92

Entry under test: EEEDLRHRLKYFFMSPCDKFRAKG [R7H] . Its protein stability index was 2.73

Entry under test: EEEDLRRRLKYFFMSPVDKFRAKG [C17V] . Its protein stability index was 2.53

Entry under test: EEEDLRRRLCYFFMSPCDKFRAKG [K10C] . Its protein stability index was 2.15

Entry under test: EEEDLRRRLRYFFMSPCDKFRAKG [K10R] . Its protein stability index was 2.33

Entry under test: EERDLRRRLKYFFMSPCDKFRAKG [E3R] . Its protein stability index was 2.15

Entry under test: EEEDLRRRLKYFFMSLCDKFRAKG [P16L] . Its protein stability index was 1.7

Entry under test: EEEDLRDRLKYFFMSPCDKFRAKG [R7D] . Its protein stability index was 3.01

Entry under test: EEEDLRRRLKYFFMSPCVKFRAKG [D18V] . Its protein stability index was 2.44

Entry under test: VEEDLRRRLKYFFMSPCDKFRAKG [E1V] . Its protein stability index was 1.51

Entry under test: EEEDLRRRLKYFFYSPCDKFRAKG [M14Y] . Its protein stability index was 2.23

Entry under test: EEEDLRRRKKYFFMSPCDKFRAKG [L9K] . Its protein stability index was 2.89

Entry under test: EEEDPRRRLKYFFMSPCDKFRAKG [L5P] . Its protein stability index was 3.17

Entry under test: EEEDLRRRLKYFFMRPCDKFRAKG [S15R] . Its protein stability index was 2.91

Entry under test: EEEDLQRRLKYFFMSPCDKFRAKG [R6Q] . Its protein stability index was 3.04

Entry under test: EEEDLRRRYKYFFMSPCDKFRAKG [L9Y] . Its protein stability index was 2.97

Entry under test: EWEDLRRRLKYFFMSPCDKFRAKG [E2W] . Its protein stability index was 4.34

Entry under test: EEEDWRRRLKYFFMSPCDKFRAKG [L5W] . Its protein stability index was 2.91

Entry under test: EEEDLRRRLKYFEMSPCDKFRAKG [F13E] . Its protein stability index was 3.74
